The reported measurements were obtained from ChEMBL document CHEMBL1143049.

Test system: K562
Experiment: Antitumor activity against human K562 cells after 72 hrs by Calcein AM assay
Assay type: functional, cell-based
Conditions: K562, 72 h
MEASURE: log10(IC50) (log10 of the value in µM)
Parameter value (number): base-10 log of IC50 in µM.

Q: Query (compound): `OC[C@H]1O[C@@H](n2cnc3c(NCc4ccccc4)ncnc32)[C@H](O)[C@@H]1O` ; field requested: log10(IC50)
Result: 0.74

Q: Could you tell me which log10(IC50) is on file for `Cc1ccc(O)c(CNc2ncnc3c2ncn3[C@@H]2O[C@H](CO)[C@@H](O)[C@H]2O)c1` ?
Result: 1.22

Q: Quick one: log10(IC50) for `OC[C@H]1O[C@@H](n2cnc3c(NCc4cccc(Cl)c4)ncnc32)[C@H](O)[C@@H]1O` ?
Result: 1.44

Q: Which log10(IC50) value is on record for `Cc1cccc(CNc2ncnc3c2ncn3[C@@H]2O[C@H](CO)[C@@H](O)[C@H]2O)c1O` ?
Result: 1.26

Q: Field request: log10(IC50) | item: `OC[C@H]1O[C@@H](n2cnc3c(NCc4cccc(Br)c4)ncnc32)[C@H](O)[C@@H]1O`
Result: 1.29

Q: Which value of log10(IC50) has been reported for `OC[C@H]1O[C@@H](n2cnc3c(NCc4ccc(Cl)cc4)ncnc32)[C@H](O)[C@@H]1O` in the records?
Result: 2.34

Q: Fill in the blank: the reported log10(IC50) of `OC[C@H]1O[C@@H](n2cnc3c(NCc4ccc(F)c(Cl)c4)ncnc32)[C@H](O)[C@@H]1O` is ____.
Result: 0.74

Q: Entry `OC[C@H]1O[C@@H](n2cnc3c(NCc4ccccc4Br)ncnc32)[C@H](O)[C@@H]1O` has what log10(IC50)?
Result: 1.00
